Test system: Escherichia coli
Assay: Antibacterial activity against Escherichia coli HB101 after 3 hrs by microdilution serial twofold assay
Assay type: functional
Conditions: HB101, 3 h, read-out: LD50 (the source's name)
Square brackets hold non-standard residues; d marks the D form. Peptide text beside a SMILES is read from it. 1Nal = N[C@@H](Cc1cccc2ccccc12)C(=O)O; 2Nal = N[C@@H](Cc1ccc2ccccc2c1)C(=O)O; hPhe = N[C@@H](CCc1ccccc1)C(=O)O
Measured LC50 by item

Molecule: CSCC[C@H](NC(=O)[C@@H](NC(=O)CNC(=O)[C@H](CC(C)C)NC(=O)[C@H](CCCCN)NC(=O)[C@H](CCCCN)NC(=O)[C@H](CC(C)C)NC(=O)[C@H](CCSC)NC(=O)[C@@H](NC(=O)[C@H](CCCCN)NC(=O)[C@H](Cc1ccc2ccccc2c1)NC(=O)[C@H](CC(C)C)NC(=O)[C@H](C)N)[C@@H](C)O)[C@@H](C)O)C(=O)N[C@@H](C)C(=O)N[C@@H](CC(C)C)C(N)=O (H-AL[2Nal]KTMLKKLGTMAL-NH2)
Observed property: LC50
Measured value: 0.9 µM

Using the record for CSCC[C@H](NC(=O)[C@@H](NC(=O)CNC(=O)[C@H](CC(C)C)NC(=O)[C@H](CCCCN)NC(=O)[C@H](CCCCN)NC(=O)[C@H](CC(C)C)NC(=O)[C@H](CCSC)NC(=O)[C@@H](NC(=O)[C@H](CCCCN)NC(=O)[C@H](Cc1cccc2ccccc12)NC(=O)[C@H](CC(C)C)NC(=O)[C@H](C)N)[C@@H](C)O)[C@@H](C)O)C(=O)N[C@@H](C)C(=O)N[C@@H](CC(C)C)C(N)=O (H-AL[1Nal]KTMLKKLGTMAL-NH2) , report its LC50.
0.9 µM

I would be grateful if you could share the reported LC50 for CSCC[C@H](NC(=O)[C@@H](NC(=O)CNC(=O)[C@H](CC(C)C)NC(=O)[C@H](CCCCN)NC(=O)[C@H](CCCCN)NC(=O)[C@H](CC(C)C)NC(=O)[C@H](CCSC)NC(=O)[C@@H](NC(=O)[C@H](CCCCN)NC(=O)[C@H](CCc1ccccc1)NC(=O)[C@H](CC(C)C)NC(=O)[C@H](C)N)[C@@H](C)O)[C@@H](C)O)C(=O)N[C@@H](C)C(=O)N[C@@H](CC(C)C)C(N)=O (H-AL[hPhe]KTMLKKLGTMAL-NH2) .
3 µM
